Consider the following binders and their measured specificity ELISA, fold over background readings.
# target_entity: T1, COVID S1 RBD Fc fusion (Antigen 1) (SARS-CoV-2, UniProt P0DTC2 319-541)
# T1 construct: domain: RBD
# assay_summary: phage ELISA
State the answer as a number, implicitly in fold over background.

>>> numeric_readout("SARS-CoV-2 variant 1-21 (antibody, V domains shown) VH: EVQLLESGGGLVQPGGSLRLSCAASGFTFSSYTMSWVRQAPGKGLEWVSIISGSGGSTYYADSVKGRFTISRDNSKNTLYLQMNSLRAEDTAVYYCAREGYRDYLWYFDLWGQGTLVTVSS VL: QSALTQPASVSGSPGQSITISCTGTSSDVGSNNLVSWYQQHPGKAPKLMIYEGNKRPSGVSNRFSGSKSGNTASLTISGLQAEDEADYYCCSYAGSVVFGGGTKLTVL")
14.8

IN: // specificity ELISA, fold over background lookup, key: SARS-CoV-2 variant 1-42 (antibody, V domains shown) VH: EVQLLESGGGLVQPGGSLRLSCAASGVTFSSYAMSWVRQAPGKGLEWVSAITGSGGSTYYADSVKGRFTISRDNSKNTLYLQMNSLRAEDTAVYYCAKHGSGTIFGVVIAKYYFDYWGQGTLVTVSS VL: QSALTQPASVSGSPGQSITISCTGTSSDVGRYNLVSWYQQHPGKAPKLMIYEGGKRPSGVSNRFSGSKSGNTASLTISGLQAEDEADYYCCSYASSSTLVFGGGTKLTVL
OUT: 20.8
